- System: THP-1
- ASSAY_INFO: Cell growth inhibition assay (CellTiter-Glo), THP-1
- Type: cell-based, human
- CONDITION_NOTES: THP-1 cells, 4 days, total growth inhibition
Given measured THP-1 TGI, output 1 (yes) if it is greater than or equal to 300 nM and 0 (no) if not.

Query block: Does Cn1ccc2c1C(c1ccc(Cl)cc1)N(c1ccc(=O)n(C)c1)C2=O (centres unmarked) have a reported THP-1 TGI of at least 300 nM?
Result block: 1 (yes)

Query block: Does Cc1c[nH]c2c1C(=O)N(c1cc(C)c3nnc(C)n3c1)C2c1ccc(Cl)cc1 (centres unmarked) have a reported THP-1 TGI of at least 300 nM?
Result block: 0 (no)

Query block: Does COc1ccc(-c2cc3c(n2C)C(c2ccc(Cl)cc2)N(c2cc(C)c(=O)n(C)c2)C3=O)cn1 (centres unmarked) have a reported THP-1 TGI of at least 300 nM?
Result block: 0 (no)

Query block: Does Cc1cc(N2C(=O)c3ccn(C)c3C2c2ccc(F)cc2)cn(C)c1=O (centres unmarked) have a reported THP-1 TGI of at least 300 nM?
Result block: 1 (yes)

Query block: Does Cc1cc(N2C(=O)c3c(C4CC4)cn(C)c3C2c2ccc(Cl)cc2)cn(C)c1=O (centres unmarked) have a reported THP-1 TGI of at least 300 nM?
Result block: 0 (no)

Query block: Does Cc1ccc(C2c3c(ccn3C)C(=O)N2c2cc(Cl)c(=O)n(C)c2)cc1 (centres unmarked) have a reported THP-1 TGI of at least 300 nM?
Result block: 0 (no)

Query block: Does Cc1cn(CCO)c2c1C(=O)N(c1cc(C)c3nnc(C)n3c1)C2c1ccc(Cl)cc1 (centres unmarked) have a reported THP-1 TGI of at least 300 nM?
Result block: 0 (no)

Query block: Does CNC(=O)c1cn(C)c2c1C(=O)N(c1cc(C)c3nnc(C)n3c1)C2c1ccc(Cl)cc1 (centres unmarked) have a reported THP-1 TGI of at least 300 nM?
Result block: 0 (no)
